# testName: Effective concentration for phenotypic endpoint in tadpoles
# Design: species or system frog, Tadpole
observable: EC50

{"compound": "CCCCCCO [1-HEXANOL]", "resultValue": "~700 µM"}

Every entry's value here was drawn from ChEMBL document CHEMBL1139547.
